# Assay Target: BCL6 (Homo sapiens)
# Construct: HiBiT-tag knocked into endogenous BCL6 locus using CRISPR; endogenous in cells; host or cells: DHL-4_BCL6_HiBiT cells (CRISPR knock-in)
# Experiment Notes: BCL6_HiBiT degradation assay (2 h)
# Type: cell-based
# Cond: DHL-4_BCL6_HiBiT cells, read-out: YCon (% remaining maximal effect)
// values below are reported Percent BCL6 remaining at maximal degradation (Ycon)
Metric: Percent BCL6 remaining at maximal degradation (Ycon)

* C[C@@H]1CN(c2ncc(Cl)c(Nc3ccc4c(c3)CC(=O)N4CC(C)(C)F)n2)CC[C@H]1Nc1ccc2c(C3CCC(=O)NC3=O)nn(C)c2c1 (some centres unmarked) [Example 121] | < 20%
* CN1C(=O)Cc2cc(Nc3nc(N4CCC(c5ccc6c(N7CCC(=O)NC7=O)nn(C)c6c5)CC4)ncc3Cl)ccc21 [Example 134] | > 60%
* Cc1nc(N2CC[C@@H](Nc3ccc4c(C5CCC(=O)NC5=O)nn(C)c4c3)[C@H](C)C2)nc(Nc2ccc3c(c2)CC(=O)N3C)c1Cl (some centres unmarked) [Example 122] | < 20%
* C[C@H]1CN(c2ncc(Cl)c(Nc3ccc4c(c3)CC(=O)N4C)n2)CC[C@H]1Nc1ccc2c(C3CCC(=O)NC3=O)nn(C)c2c1 (some centres unmarked) [Example 13] | > 60%
* CN1C(=O)Cc2cc(Nc3nc(N(C)C4CCN(c5ccc6c(C7CCC(=O)NC7=O)nn(C)c6c5)C5(CCC5)C4)ncc3Cl)ccc21 (centres unmarked) [Example 2] | < 20%
